Test System: Muscarinic acetylcholine receptor M2 (Homo sapiens, UniProt P08172, Y104A)
Sequence (P08172 whole entry Y104A): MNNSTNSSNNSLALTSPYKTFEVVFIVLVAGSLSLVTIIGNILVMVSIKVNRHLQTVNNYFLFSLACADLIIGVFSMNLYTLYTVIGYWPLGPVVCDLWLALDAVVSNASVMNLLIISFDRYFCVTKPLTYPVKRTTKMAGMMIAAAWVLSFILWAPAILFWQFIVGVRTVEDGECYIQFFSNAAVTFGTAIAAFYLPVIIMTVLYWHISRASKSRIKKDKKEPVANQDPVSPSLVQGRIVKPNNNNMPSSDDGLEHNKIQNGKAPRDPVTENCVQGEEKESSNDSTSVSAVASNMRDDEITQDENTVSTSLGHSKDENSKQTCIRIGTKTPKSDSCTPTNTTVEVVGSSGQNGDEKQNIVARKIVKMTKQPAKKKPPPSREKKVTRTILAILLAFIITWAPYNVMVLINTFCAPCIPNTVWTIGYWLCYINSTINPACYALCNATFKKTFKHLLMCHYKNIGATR
Assay Protocol: Displacement of [3H]-NMS from human muscarinic M2 Y104A mutant expressed in Flp-In-CHO cells by liquid scintillation counting
Measured Endpoint: Ki (nM)
Response body: numeric value in nM, unit text excluded.

C[N+](C)(C)CC#CCOC1=NOCC1: 257
C[N+](C)(CCCCCC[N+]1(C)[C@@H]2C[C@H](OC(=O)[C@H](CO)c3ccccc3)C[C@H]1[C@@H]1O[C@@H]12)CCCN1C(=O)c2ccccc2C1=O (stereo partly drawn): 50.1

Now let's try a different one.
### Prompt Give its Ki value. Item: C[N+](C)(C)CCCCCC[N+]1(C)[C@@H]2C[C@H](OC(=O)[C@H](CO)c3ccccc3)C[C@H]1[C@@H]1O[C@@H]12 (stereo partly drawn)
### Response 309
